Test system: fungus cellar soil-bed
Assay: Fungus cellar soil-bed test of preservative LVL (JIS K1571:2004)
Settings: treated amount 25 g/m^3, six months, 25° C., grade 0 sound condition to 5 out of shape due to the decay
Description: 1000 g of the phenol resin-based glue Deernol D-117 (manufactured by Oshika Corporation), 70 g of wheat flour and 100 g of calcium carbonate were mixed and well kneaded. […] The samples of the plywood and LVL prepared in Preparation Examples 4 and 5 were evaluated by the fungus cellar soil-bed test according to JIS K1571:2004. […]
Measurement Kind: Grade average of the decay damage of five test samples
Please reply with the value in numeric form only.

[[record]]
compound = "Fc1ccc([C@]2(Cn3cncn3)O[C@H]2c2ccccc2Cl)cc1 (racemic) [Example 1, Epoxyconazole]"
quantitative_result = 0.4

[[record]]
compound = "CCCCNC(=O)OCC#CI [Comparative Example 23, 3-iode-2-propynyl-n-butylcarbamate]"
quantitative_result = 3.0

[[record]]
compound = "CO/C=C(/C(=O)OC)c1ccccc1Oc1cc(Oc2ccccc2C#N)ncn1 [Comparative Example 21, azoxystrobin]"
quantitative_result = 3.0


Moving on to the next compound.
# Grade average of the decay damage of five test samples (compound: CCCCCCCCn1sccc1=O [Comparative Example 24, N-octylisothiazolin-3-one] ) is 3.0

----------
Tested on: fungus cellar soil-bed
Assay: Fungus cellar soil-bed test of preservative plywood (JIS K1571:2004)
Settings: plywood; treated amount 100 g/m^3; six months, 25° C.; grade 0 sound condition to 5 out of shape due to the decay
# Grade average of the decay damage of five test samples per record follows

[[record]]
molecule = "CCCCNC(=O)OCC#CI [Comparative Example 23, 3-iode-2-propynyl-n-butylcarbamate]"
result = 3.2

[[record]]
molecule = "CO/C=C(/C(=O)OC)c1ccccc1Oc1cc(Oc2ccccc2C#N)ncn1"
result = 3.0

[[record]]
molecule = "CCCCCCCCn1sccc1=O"
result = 2.8


The molecule Fc1ccc([C@]2(Cn3cncn3)O[C@H]2c2ccccc2Cl)cc1 (racemic) , tested on fungus cellar soil-bed, showed Grade average of the decay damage of five test samples of 0

----------
Tested on: fungus cellar soil-bed
Test: Fungus cellar soil-bed test of preservative LVL (JIS K1571:2004)
Conditions: treated amount 100 g/m^3, six months, 25° C., grade 0 sound condition to 5 out of shape due to the decay
Measurement Kind: Grade average of the decay damage of five test samples
Please reply with the value in numeric form only.

[[record]]
molecule = "CO/C=C(/C(=O)OC)c1ccccc1Oc1cc(Oc2ccccc2C#N)ncn1"
quantitative_result = 3.4

[[record]]
molecule = "CCCCNC(=O)OCC#CI [Comparative Example 23, 3-iode-2-propynyl-n-butylcarbamate]"
quantitative_result = 3.2


# Grade average of the decay damage of five test samples (molecule: Fc1ccc([C@]2(Cn3cncn3)O[C@H]2c2ccccc2Cl)cc1 (racemic) ) is 0

# Grade average of the decay damage of five test samples (molecule: `CCCCCCCCn1sccc1=O` ) is 3.0

----------
Assay: Test for miscibility with a phenol resin glue
Format: physicochemical
Design: key: ∘: No change; x: Obvious increase in the viscosity was seen and it seems impossible to apply the composition onto the veneer sheet
Conditions: 10% (w/w) solution added to phenol resin glue Deernol D-117 kneaded product; viscosity change visually observed for 60 minutes
Measurement Kind: Phenol resin status after 60 minutes

[[record]]
molecule = "CCCCNC(=O)OCC#CI [Comparative Example 23, 3-iode-2-propynyl-n-butylcarbamate]"
measurement_kind = "Phenol resin status after 60 minutes"
result = "∘"

[[record]]
molecule = "C[Si](Cn1cncn1)(c1ccc(F)cc1)c1ccc(F)cc1 [Comparative Example 10, flusilazole]"
measurement_kind = "Phenol resin status after 60 minutes"
result = "∘"

[[record]]
molecule = "Clc1ccc(CSC(Cn2cncn2)=Nc2ccc(Cl)cc2Cl)cc1 [Comparative Example 12, imibenconazole]"
measurement_kind = "Phenol resin status after 60 minutes"
result = "∘"


Data origin, for the record: patent US20120100361A1
